# test-details: chemical genetic growth profiling, strain panel (AID 1159580);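 also: tested at 20 µM; growth read once vehicle control cultures reached saturation at 30 °C; 1 = growth at the plate median or of vehicle wells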
# study-conditions: S. cerevisiae deletion strains, growth OD, locus YDR392W, strain spt3
Screen size: about 5,500 compounds; about 2,000 (36%) were called active. Inconclusive results (about 18%) are left out. Rule as the data show it: active = normalized growth mostly below about 0.91 (no sharp cut-off); inconclusive = no clear call, values can overlap the other calls; inactive = mostly above about 0.92. Some of the results follow.
Please reply with one of these outcomes: active, inactive

Record excerpt, results attached:
>  <compound>
O=C1CN2Cc3c(ccc(Cl)c3Cl)N=C2N1

>  <class-assignment>
inactive

$$$$
>  <compound>
COc1ccc(C(=O)/C=C/c2ccccc2)cc1

>  <class-assignment>
active

$$$$
>  <compound>
O=C(/C=C/c1ccccc1)c1ccc(O)cc1

>  <class-assignment>
active

$$$$
>  <compound>
NC(=O)CC[C@@H](N)C(=O)O

>  <class-assignment>
inactive

$$$$
>  <compound>
O=c1c2ccccc2oc2ccccc12

>  <class-assignment>
active

$$$$
>  <compound>
OC1C(O)C(O)C(O)C(O)C1O (configuration not stated)

>  <class-assignment>
inactive

$$$$
>  <compound>
O=C1CC[C@]23C=CC(=O)NCCCCNCCCNC(=O)/C=C/c4ccc(c2c4)O[C@@H]3C1

>  <class-assignment>
inactive

$$$$
>  <compound>
O=C(O)c1cc(=O)c2ccccc2o1

>  <class-assignment>
inactive

$$$$

# next compound below
GET /call?item= NS(=O)(=O)c1cc2c(cc1C(F)(F)F)NCNS2(=O)=O returns the recorded outcome of this test. inactive

====

# test-details: chemical genetic growth profiling, strain panel (AID 1159580)
# study-conditions: S. cerevisiae deletion strains, growth OD, locus YGL240W, strain doc1, hits give low values
In all, about 5,500 compounds went through this assay and about 2,000 (36%) were called active. Roughly 18% stayed inconclusive and do not appear here. This is one part of the list.
// reported normalized growth per item
Field format: numeric only.

>  <compound>
CCCCCCCCCc1ccc(O)cc1

>  <normalized growth>
0.157

$$$$

Read off the recorded normalized growth for O=C1CN2Cc3c(ccc(Cl)c3Cl)N=C2N1 0.97

Read off the recorded normalized growth for COc1ccc(-c2cc(=O)c3c(O)c(OC)c(OC)c(OC)c3o2)cc1 1

Read off the recorded normalized growth for CCCCCCc1ccc(O)cc1O 0.899

Read off the recorded normalized growth for S=c1ccss1 0.96

Read off the recorded normalized growth for CC1(C)O[C@@H]2CC3C4CCC5=CC(=O)C=C[C@]5(C)[C@@]4(F)[C@@H](O)C[C@]3(C)[C@]2(C(=O)CO)O1 (stereo partly specified) 0.953

====

# test-details: chemical genetic growth profiling, strain panel (AID 1159580)
# study-conditions: S. cerevisiae deletion strains, growth OD, locus YCL029C, strain bik1, hits give low values
Hit rate of the full screen: of about 5,500 compounds, about 2,000 (36%) were called active. Another 18% or so got no clear call; they are omitted. The list shows a part of the results.
normalized growth less than 1 is true (1); normalized growth greater than or equal to 1 is false (0).

Record excerpt, results attached:
>  <molecule>
O=c1c(-c2ccccc2)coc2cc(O)cc(O)c12

>  <class-assignment>
true (1)

$$$$
>  <molecule>
COc1cc(O)c2c(=O)c(-c3ccc(O)cc3)coc2c1

>  <class-assignment>
true (1)

$$$$
>  <molecule>
CCCCCCCCCc1ccc(O)cc1

>  <class-assignment>
true (1)

$$$$
>  <molecule>
CC(=O)O.CC(=O)O.[Cd]

>  <class-assignment>
true (1)

$$$$
>  <molecule>
Nc1ccc(C(=O)Oc2ccccc2)c(O)c1

>  <class-assignment>
true (1)

$$$$
>  <molecule>
C[n+]1cc2c3c(ccc2c2ccc4cc5c(cc4c21)OCO5)OCO3

>  <class-assignment>
true (1)

$$$$

API: query returns whether the molecule falls strictly under 1 in normalized growth. Query: COc1ccc2cc3[n+](cc2c1OC)CCc1cc2c(cc1-3)OCO2 true (1)

API: query returns whether the molecule falls strictly under 1 in normalized growth. Query: O=c1[nH]c2cc(Cl)c(Cl)cc2[nH]c1=O false (0)

API: query returns whether the molecule falls strictly under 1 in normalized growth. Query: C[N+]1(CCCCC[N+]2(C)CCCC2)CCCC1 false (0)

API: query returns whether the molecule falls strictly under 1 in normalized growth. Query: C=CCCCCCCCCCCCC(O)CC(O)CO (stereo not given) true (1)

API: query returns whether the molecule falls strictly under 1 in normalized growth. Query: COc1ccc2c(=O)cc(-c3ccccc3OC)oc2c1 true (1)

API: query returns whether the molecule falls strictly under 1 in normalized growth. Query: C=CCCCCCCCCCCCC(O)CC(O)CO (stereo not given) (tested in a mixture with another compound) true (1)

API: query returns whether the molecule falls strictly under 1 in normalized growth. Query: ClC(Cl)=C(c1ccc(Cl)cc1)c1ccc(Cl)cc1 true (1)

====

# test-details: chemical genetic growth profiling, strain panel (AID 1159580)
# study-conditions: S. cerevisiae deletion strains, growth OD, locus YMR263W, strain SAP30, hits give low values
In all, about 5,500 compounds went through this assay and about 2,000 (36%) were called active. Not shown: some 18% with an inconclusive outcome. This is one part of the list.
measure-name: normalized growth
Field format: numeric only.

Worked examples follow.
>  <compound>
CCN(CCCCOC(=O)c1ccc(OC)c(OC)c1)C(C)Cc1ccc(OC)cc1 (stereo unspecified)

>  <normalized growth>
0.978

$$$$
>  <compound>
C=C1C(N)CC2CC1C2(C)C (stereo unspecified)

>  <normalized growth>
1.02

$$$$
>  <compound>
CCOC(=O)CSc1nnc(-c2cc(C(C)(C)C)nn2Cc2cccc(C)c2)n1C1CCCCC1

>  <normalized growth>
1

$$$$

Read off the recorded normalized growth for CC(C)(C)OC(=O)NC1CCN(C(=O)c2ccc(Cl)cc2Cl)CC1 0.989

Read off the recorded normalized growth for Nc1ccc(C(=O)O)c(O)c1 1

Read off the recorded normalized growth for Cc1cc(NC(=O)Nc2ccc3c(ccn3C)c2)sn1 0.968

====

# test-details: chemical genetic growth profiling, strain panel (AID 1159580);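 also: tested at 20 µM; growth read once vehicle control cultures reached saturation at 30 °C; 1 = growth at the plate median or of vehicle wells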
# study-conditions: S. cerevisiae deletion strains, growth OD, locus YER110C
About 2,000 (36%) of roughly 5,500 compounds were called active. Not shown: some 18% with an inconclusive outcome. Cut-off read from the data, not from the text of the source: active = normalized growth mostly below about 0.91 (no sharp cut-off); inconclusive = no clear call, values can overlap the other calls; inactive = mostly above about 0.92. The list shows a part of the results.
Please reply with one of these outcomes: active, inactive

>  <compound>
Nc1nc(N)c2nc(-c3ccccc3)c(N)nc2n1

>  <class-assignment>
inactive

$$$$
>  <compound>
CC[N+]1(C)CCCC(OC(=O)C(O)(c2ccccc2)c2ccccc2)C1 (configuration not stated)

>  <class-assignment>
inactive

$$$$
>  <compound>
O=c1c2ccccc2[se]n1-c1ccccc1

>  <class-assignment>
active

$$$$
>  <compound>
NCCc1ccc(O)cc1

>  <class-assignment>
inactive

$$$$
>  <compound>
CN1CCN2c3ccccc3Cc3ccccc3C2C1 (configuration not stated)

>  <class-assignment>
inactive

$$$$

GET /call?item= C=CCc1ccccc1OCC(O)CNC(C)C (configuration not stated) returns the recorded outcome of this test. inactive

GET /call?item= CN(N=O)C(=O)N[C@@H]1[C@@H](O)[C@H](O)[C@@H](CO)O[C@@H]1O returns the recorded outcome of this test. inactive

====

# test-details: chemical genetic growth profiling, strain panel (AID 1159580);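 also: tested at 20 µM; growth read once vehicle control cultures reached saturation at 30 °C; 1 = growth at the plate median or of vehicle wells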
# study-conditions: S. cerevisiae deletion strains, growth OD, locus YGR078C, strain PAC10
The campaign covered roughly 5,500 compounds. About 2,000 (36%) were called active. Inconclusive results (about 18%) are left out. No stated cut-off is given here; in the data, active means normalized growth mostly below about 0.91 (no sharp cut-off); inconclusive means no clear call, values can overlap the other calls; inactive means mostly above about 0.92. The list shows a part of the results.
Please reply with one of these outcomes: active, inactive

Record excerpt, results attached:
>  <molecule>
Cc1c(C)c(C)c(CO)c(C)c1C

>  <class-assignment>
inactive

$$$$
>  <molecule>
O=C(O)c1coc2ccccc2c1=O

>  <class-assignment>
inactive

$$$$
>  <molecule>
CC(=O)CC(c1ccccc1)c1c(O)c2ccccc2oc1=O (stereo not drawn)

>  <class-assignment>
inactive

$$$$
>  <molecule>
COc1ccc(-c2coc3cc(O)cc(O)c3c2=O)cc1

>  <class-assignment>
active

$$$$

# next molecule below
GET /call?item= CC(=O)O.CC(=O)O.[Cd] returns the recorded outcome of this test. active

====

# test-details: chemical genetic growth profiling, strain panel (AID 1159580);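 also: tested at 20 µM; growth read once vehicle control cultures reached saturation at 30 °C; 1 = growth at the plate median or of vehicle wells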
# study-conditions: S. cerevisiae deletion strains, growth OD, locus YOR001W, strain rrp6, hits give low values
Screen size: about 5,500 compounds; about 2,000 (36%) were called active. About 18% were inconclusive and are not listed. This is one part of the list.
// reported normalized growth per item
Field format: numeric only.

>  <compound>
N[C@@H]1CONC1=O

>  <normalized growth>
1.02

$$$$
>  <compound>
COc1ccc2cc3[n+](cc2c1OC)CCc1cc2c(cc1-3)OCO2

>  <normalized growth>
0.973

$$$$
>  <compound>
Nc1nc(N)c2nc(-c3ccccc3)c(N)nc2n1

>  <normalized growth>
1.01

$$$$
>  <compound>
COc1c2c(cc3c1OCO3)CC[N+](C)=C2

>  <normalized growth>
1.03

$$$$
>  <compound>
O=c1cc(-c2cccc(O)c2)oc2ccc(O)cc12

>  <normalized growth>
0.948

$$$$
>  <compound>
COc1ccc(C(=O)/C=C/c2ccccc2)cc1

>  <normalized growth>
0.905

$$$$
>  <compound>
COc1cc([C@@H]2c3cc4c(cc3[C@H](O)[C@H]3COC(=O)[C@@H]23)OCO4)cc(OC)c1OC

>  <normalized growth>
1.04

$$$$
>  <compound>
CC(C)c1ccc2c(c1O)CC[C@H]1C3=C(CC[C@]21C)C(=O)OC3

>  <normalized growth>
0.985

$$$$

Read off the recorded normalized growth for CCCCCCc1ccc(O)cc1O 0.876

Read off the recorded normalized growth for CCCCCCCCCc1ccc(O)cc1 0.0626

Read off the recorded normalized growth for O=c1cc(-c2ccc(O)c(O)c2)oc2ccccc12 0.928

Read off the recorded normalized growth for COc1cc2c3cc1Oc1cc(ccc1O)C[C@@H]1c4c(cc(OC)c(O)c4Oc4ccc(cc4)C[C@@H]3N(C)CC2)CC[N+]1(C)C 1.02

Read off the recorded normalized growth for COc1ccc(-c2cc(=O)c3ccccc3o2)cc1 0.809

Read off the recorded normalized growth for CC(C)=CCc1c2c(c(O)c3c(=O)c(O)c(-c4ccccc4)oc13)C=CC(C)(C)O2 0.836

Read off the recorded normalized growth for COc1cc([C@@H]2c3cc4c(cc3C(O[C@@H]3O[C@@H]5CO[C@@H](c6cccs6)OC5[C@H](O)[C@H]3O)C3COC(=O)[C@@H]32)OCO4)cc(OC)c1O (stereo partly drawn) 0.933

Read off the recorded normalized growth for COC(=O)C1=C(C)NC(C)=C(C(=O)OCC(C)C)C1c1ccccc1[N+](=O)[O-] (stereo not drawn) 0.952

Read off the recorded normalized growth for O=c1c2ccccc2[se]n1-c1ccccc1 0.459

Measured values drawn from PubChem BioAssay AID1159580 for this set.
